Target: hERG K channel (Homo sapiens)
Construct: host or cells: CHO
Assay: hERG Q-Patch assay
Format: cell-based
Conditions: concentration 300 nM; CHO cells expressing hERG; K+ tail current 3 min after application; mean of two or three experiments

{"columns": ["smiles.input", "unit.abbrev", "% block"],
 "data": [
  ["COc1ccc(-c2nc(C(F)(F)F)sc2N2CCN(C(=O)Cn3nc(C)nc3C)[C@H](C)C2)cc1F", "%", 7],
  ["CCOc1ncc(-c2nc(C(F)(F)F)sc2N2CCN(C(=O)Cn3nc(C)nc3C)[C@H](C)C2)cn1", "%", 9],
  ["CCOc1ncc(-c2nc(C(F)(F)F)sc2N2CCN(C(=O)Cn3nc(CN(C)C)nc3C)[C@H](C)C2)cn1", "%", 13],
  ["Cc1nc(C)n(CC(=O)N2CCN(c3sc(C(F)(F)F)nc3-c3cnc(OCC(F)(F)F)nc3)C[C@H]2C)n1", "%", 0],
  ["COc1ccc(-c2nc(C(F)(F)F)sc2N2CCN(C(=O)Cn3nc(C)nc3C)[C@H](C)C2)cc1", "%", 4],
  ["CCOc1ncc(-c2nc(C(F)(F)F)sc2N2CCN(C(=O)Cn3nc(C)nc3C)[C@H](C)C2)c(OCC)n1", "%", "−2"],
  ["Cc1nc(C)n(CC(=O)N2CCN(c3sc(C(F)(F)F)nc3-c3ccc(OC(C)C)cc3)C[C@H]2C)n1", "%", 7],
  ["Cc1nc(C)n(CC(=O)N2CCN(c3sc(C(F)(F)F)nc3-c3cnc(OC4COC4)nc3)C[C@H]2C)n1", "%", 1]
]}

---

Quick list: % block per entry.
Target: hERG K channel (Homo sapiens, UniProt Q12809)
Construct: host or cells: CHO
Sequence (Q12809 whole entry): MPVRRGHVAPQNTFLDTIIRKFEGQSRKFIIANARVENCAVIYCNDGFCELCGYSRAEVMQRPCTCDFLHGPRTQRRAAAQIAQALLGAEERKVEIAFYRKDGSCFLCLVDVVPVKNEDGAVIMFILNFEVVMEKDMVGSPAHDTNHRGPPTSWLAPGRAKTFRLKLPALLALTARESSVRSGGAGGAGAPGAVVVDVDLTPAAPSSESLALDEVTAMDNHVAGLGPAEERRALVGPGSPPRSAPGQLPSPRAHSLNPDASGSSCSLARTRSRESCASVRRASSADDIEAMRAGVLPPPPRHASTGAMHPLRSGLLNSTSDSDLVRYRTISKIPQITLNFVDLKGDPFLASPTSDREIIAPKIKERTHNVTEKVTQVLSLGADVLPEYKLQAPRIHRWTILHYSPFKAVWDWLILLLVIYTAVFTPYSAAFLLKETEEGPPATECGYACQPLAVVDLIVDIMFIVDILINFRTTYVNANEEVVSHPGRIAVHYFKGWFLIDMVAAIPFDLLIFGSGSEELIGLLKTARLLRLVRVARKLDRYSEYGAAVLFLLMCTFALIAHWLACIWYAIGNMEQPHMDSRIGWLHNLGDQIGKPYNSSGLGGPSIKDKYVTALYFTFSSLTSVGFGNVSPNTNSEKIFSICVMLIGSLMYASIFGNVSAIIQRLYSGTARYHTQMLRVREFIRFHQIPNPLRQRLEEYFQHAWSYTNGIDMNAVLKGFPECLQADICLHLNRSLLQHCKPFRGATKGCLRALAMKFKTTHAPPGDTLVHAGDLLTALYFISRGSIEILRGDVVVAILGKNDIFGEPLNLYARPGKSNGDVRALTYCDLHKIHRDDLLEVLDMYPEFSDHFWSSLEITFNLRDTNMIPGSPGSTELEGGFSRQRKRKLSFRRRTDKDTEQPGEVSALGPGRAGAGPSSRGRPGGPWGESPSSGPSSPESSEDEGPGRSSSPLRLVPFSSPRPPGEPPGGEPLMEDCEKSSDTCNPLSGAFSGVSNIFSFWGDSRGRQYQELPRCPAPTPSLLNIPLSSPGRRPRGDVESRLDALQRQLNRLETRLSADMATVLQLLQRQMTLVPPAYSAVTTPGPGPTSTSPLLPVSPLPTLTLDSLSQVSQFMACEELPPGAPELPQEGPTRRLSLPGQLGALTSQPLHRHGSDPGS
Assay: hERG Q-Patch assay
Assay type: cell-based
Conditions: concentration 3000 nM; CHO cells expressing hERG; K+ tail current 3 min after application; mean of two or three experiments
Method: B) hERG Q-Patch assay: Compounds are evaluated for block of the hERG K channel using CHO cells stably expressing the hERG gene (accession number U04270, bSys, Witterswil. Switzerland) and the Patch robotic platform (Sophion, Ballerup, Denmark) in single-cell mode at room temperature. […] K^+ currents are measured with the patch-voltage-clamp technique in the whole-cell configuration with the internal solution (in […]: KCl, 140; NaCl, 10; MgCl2, 1; HEPES, 10; EGTA, 5; pH=7.2 with KOH). […]

{"columns": ["compound", "experimental.target", "% block"],
 "data": [
  ["CCOc1ncc(-c2nc(C(F)(F)F)sc2N2CCN(C(=O)Cn3nc(C)nc3CC)[C@H](C)C2)cn1 (single isomer, unassigned) [Example 19]", "hERG K channel (Homo sapiens, UniProt Q12809)", "12%"],
  ["Cc1nc(C)n(CC(=O)N2CCN(c3sc(C(F)(F)F)nc3-c3ccc(F)cc3)C[C@H]2C)n1 [Example 6]", "hERG K channel (Homo sapiens, UniProt Q12809)", "51%"],
  ["CCc1ncc(-c2nc(C(F)(F)F)sc2N2CCN(C(=O)Cn3nc(C)nc3C)[C@H](C)C2)cn1 [Example 43]", "hERG K channel (Homo sapiens, UniProt Q12809)", "8%"]
]}

---

Molecular target: human CXCR3A (Homo sapiens)
Sequence (P49682 whole entry): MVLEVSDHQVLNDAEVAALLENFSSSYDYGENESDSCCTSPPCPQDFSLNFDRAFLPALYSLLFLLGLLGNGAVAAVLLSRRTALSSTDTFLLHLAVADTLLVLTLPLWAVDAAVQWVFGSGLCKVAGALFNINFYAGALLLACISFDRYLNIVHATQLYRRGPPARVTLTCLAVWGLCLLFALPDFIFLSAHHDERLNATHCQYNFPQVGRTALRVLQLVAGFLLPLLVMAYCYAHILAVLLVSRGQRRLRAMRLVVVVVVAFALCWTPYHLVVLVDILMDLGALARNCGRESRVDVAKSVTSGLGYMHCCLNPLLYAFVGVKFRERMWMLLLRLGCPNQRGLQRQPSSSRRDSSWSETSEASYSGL
Assay: FLIPR assay (CXCL10-induced calcium signal in CHO-K1 cells)
Conditions: CHO-K1 cells expressing human CXCR3A coupled to Galpha(16); CXCL10 agonist 20 nM; mean values
pIC50: −log10 of the molar value.
Classification field: enter condition met for pIC50 values not below 8, condition not met for values below it.

{"columns": ["compound", "class.name"],
 "data": [
  ["Cc1nc(C)n(CC(=O)N2CCN(c3sc(C(F)(F)F)nc3-c3cnc(OC(C)C)nc3)C[C@H]2C)n1 [Example 27]", "condition met"],
  ["CCCc1ncc(-c2nc(C(F)(F)F)sc2N2CCN(C(=O)Cn3nc(C)nc3C)[C@H](C)C2)cn1 [Example 22]", "condition met"],
  ["CCOc1ncc(-c2nc(C(F)(F)F)sc2N2CCN(C(=O)Cn3nc(C)nc3C)[C@H](C)C2)cn1 [Example 20]", "condition met"],
  ["Cc1nc(C(C)(C)O)nn1CC(=O)N1CCN(c2sc(C(F)(F)F)nc2-c2cnc(C(F)(F)F)nc2)C[C@H]1C [Example 48]", "condition met"],
  ["CCc1ccc(-c2nc(C(F)(F)F)sc2N2CCN(C(=O)Cn3nc(C)nc3C)[C@H](C)C2)cc1 [Example 9]", "condition not met"]
]}

---

Attribute: IC50
Molecular target: human CXCR3A (Homo sapiens)
Test: FLIPR assay (CXCL10-induced calcium signal in CHO-K1 cells)
Conditions: CHO-K1 cells expressing human CXCR3A coupled to Galpha(16); CXCL10 agonist 20 nM; mean values

{"columns": ["compound", "experimental.target", "unit.abbrev", "IC50"],
 "data": [
  ["Cc1nc(C)n(CC(=O)N2CCN(c3sc(C(F)(F)F)nc3-c3ccc(OC(C)C)cc3)C[C@H]2C)n1", "human CXCR3A (Homo sapiens)", "nM", 16],
  ["CCOc1ncc(-c2nc(C(F)(F)F)sc2N2CCN(C(=O)Cn3nc(C)nc3CC)[C@H](C)C2)cn1 (single isomer, unassigned)", "human CXCR3A (Homo sapiens)", "nM", 8.5],
  ["Cc1nc(C)n(CC(=O)N2CCN(c3sc(C(F)(F)F)nc3-c3ccc(OC(F)(F)F)cc3)C[C@H]2C)n1", "human CXCR3A (Homo sapiens)", "nM", 9.8]
]}
